tested on: Aβ(1-42); test: Cell-based γ-secretase assay, Aβ(42) detection; set-up: species or system Human; conditions: Homo sapiens, SH-SY5Y, SH-SY5Y cells overexpressing SPA4CT; two values in a cell = individual enantiomers; read-out: Aβ42 IC50
Structures can show the parent of a compound that is named as a salt.
Values of IC50 strictly less than 900 nM map to satisfied, and values of at least 900 nM map to not satisfied.

[
  {
    "compound": "COc1cc(-c2cn(C(C)c3ccccc3)nn2)ccc1-n1cnc(C)c1 (stereo not shown) [Example 5, trifluoroacetate salt]",
    "category": "not satisfied"
  },
  {
    "compound": "COc1cc(-c2cn(CC(=O)N(CC(F)(F)F)c3ccc(F)c(Cl)c3)nn2)ccc1-n1cnc(C)c1 [Example 12, trifluoroacetate salt]",
    "category": "satisfied"
  },
  {
    "compound": "COc1cc(-c2cn(CSc3ccccc3)nn2)ccc1-n1cnc(C)c1 [Example 4, trifluoroacetate salt]",
    "category": "satisfied"
  },
  {
    "compound": "COc1cc(-c2cn(C(F)(F)C(=O)NCc3ccc(F)cc3)nn2)ccc1-n1cnc(C)c1 [Example 9, trifluoroacetate salt]",
    "category": "not satisfied"
  },
  {
    "compound": "COc1cc(-c2cn(CC(=O)N3CCCC4CCCCC43)nn2)ccc1-n1cnc(C)c1 (stereo not shown) [Example 8, trifluoroacetate salt]",
    "category": "not satisfied"
  },
  {
    "compound": "COc1cc(-c2cn(C(F)(F)c3ccc(C(F)F)cc3)nn2)ccc1-n1cnc(C)c1 [Example 7]",
    "category": "not satisfied"
  },
  {
    "compound": "COc1cc(-c2cn(CC(=O)N(c3ccccc3)C3CCCCC3)nn2)ccc1-n1cnc(C)c1 [Example 1]",
    "category": "satisfied"
  }
]

Origin of measurements: patent US8242150B2
